The reported measurements were obtained from patent US20120301476A1.

Target system: T1, human CAPRIN-1 protein on the cell surfaces of human cancer cell lines and in human cancer tissues (human, UniProt Q14444 2-709)
T1 sequence (looked up): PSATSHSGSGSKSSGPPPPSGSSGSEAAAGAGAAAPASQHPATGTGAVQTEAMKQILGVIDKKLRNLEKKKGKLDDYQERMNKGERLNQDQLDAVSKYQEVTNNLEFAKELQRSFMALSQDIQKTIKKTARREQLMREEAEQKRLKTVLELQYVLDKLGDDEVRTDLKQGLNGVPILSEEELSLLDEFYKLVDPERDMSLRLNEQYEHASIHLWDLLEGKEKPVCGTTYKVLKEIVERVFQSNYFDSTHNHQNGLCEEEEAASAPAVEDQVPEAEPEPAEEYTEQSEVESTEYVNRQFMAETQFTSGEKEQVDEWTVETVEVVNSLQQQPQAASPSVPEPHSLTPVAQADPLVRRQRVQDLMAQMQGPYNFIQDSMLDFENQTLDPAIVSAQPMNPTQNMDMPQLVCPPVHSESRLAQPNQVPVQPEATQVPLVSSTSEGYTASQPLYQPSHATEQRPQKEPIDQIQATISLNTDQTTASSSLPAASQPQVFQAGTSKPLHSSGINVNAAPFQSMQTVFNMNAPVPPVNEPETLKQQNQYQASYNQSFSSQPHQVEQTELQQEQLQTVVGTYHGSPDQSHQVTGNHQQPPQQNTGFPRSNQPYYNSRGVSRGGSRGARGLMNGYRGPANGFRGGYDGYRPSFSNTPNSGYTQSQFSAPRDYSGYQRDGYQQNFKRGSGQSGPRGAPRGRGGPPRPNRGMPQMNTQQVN
Method notes: cell-based or functional assay
Readout type: cytotoxic activity (ADCC) against QG56

>>> measured_value("anti-CAPRIN-1 mouse monoclonal antibody #4 (antibody, V domains shown) VH: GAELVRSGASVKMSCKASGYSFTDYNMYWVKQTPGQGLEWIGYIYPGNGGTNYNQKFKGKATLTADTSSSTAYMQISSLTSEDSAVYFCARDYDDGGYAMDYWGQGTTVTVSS VL: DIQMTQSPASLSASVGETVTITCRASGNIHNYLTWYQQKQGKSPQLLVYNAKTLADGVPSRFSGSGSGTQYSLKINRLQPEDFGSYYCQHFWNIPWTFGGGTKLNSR")
"≥ 20%"
>>> measured_value("anti-CAPRIN-1 mouse monoclonal antibody #5 (antibody, V domains shown, Mouse hybridoma antibody; detected with anti-mouse IgG) VH: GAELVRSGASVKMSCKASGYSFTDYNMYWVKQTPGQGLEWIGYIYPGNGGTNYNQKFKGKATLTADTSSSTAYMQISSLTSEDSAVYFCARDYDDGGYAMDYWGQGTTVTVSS VL: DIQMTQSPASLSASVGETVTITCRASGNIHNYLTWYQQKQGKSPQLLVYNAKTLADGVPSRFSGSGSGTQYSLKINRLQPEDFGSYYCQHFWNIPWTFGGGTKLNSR")
"≥ 20%"

With those in mind, consider the next binder.
Input: What cytotoxic activity (ADCC) against QG56 value was documented for this binder, human-chicken chimeric antibody #1 having the chicken monoclonal antibody #1 variable region (antibody, V domains shown, also called anti-CAPRIN-1 antibody #1; human-chicken chimeric monoclonal antibody (#1); not shown: human IgG1 H-chain constant region; human IgG1 L-chain constant region) VH: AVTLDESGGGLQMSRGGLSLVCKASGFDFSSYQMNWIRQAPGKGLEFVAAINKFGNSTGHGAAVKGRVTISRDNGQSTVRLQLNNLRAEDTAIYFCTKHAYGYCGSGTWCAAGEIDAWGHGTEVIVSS VL: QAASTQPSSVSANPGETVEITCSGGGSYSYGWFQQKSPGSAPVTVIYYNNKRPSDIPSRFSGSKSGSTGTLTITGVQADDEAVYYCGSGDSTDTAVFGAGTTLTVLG ?
Output: 33%
